Target: CatK (Homo sapiens, UniProt P43235)
Construct: made in house; host or cells: Pichia pastoris
Sequence (P43235 115-329): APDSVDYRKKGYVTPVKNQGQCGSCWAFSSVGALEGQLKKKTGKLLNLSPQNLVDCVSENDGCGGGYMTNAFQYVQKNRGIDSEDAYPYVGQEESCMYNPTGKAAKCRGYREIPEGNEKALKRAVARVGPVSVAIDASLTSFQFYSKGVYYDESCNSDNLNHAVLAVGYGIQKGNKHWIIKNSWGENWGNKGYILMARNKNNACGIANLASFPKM
Assay: Z-Phe-Arg-MCA cleavage assay with CatK
Type: biochemical
Conditions: 100 μM inhibitor, 5 nM CatK, 5 μM substrate, pH 5.5
assay readout: inhibition at 100 µM (%)

[I] CN(C)CCNc1ccc2ncn3c4ccc(O)cc4c(=O)c1c23 [compound 2]
[II] Cc1c2c(c(O)c3c(O)cccc13)C(=O)C1(O)C(=O)C(C(N)=O)C(O)C(N(C)C)C1C2 (centres unmarked) [compound 6]
[III] CCN(CC)CCNc1ccc2ncn3c4ccccc4c(=O)c1c23 [compound 5]
[ask] In a descending ranking, list each entry from above by its inhibition at 100 µM, from the largest value down to the smallest. // ordering of labels required in reply
[reply] II, I, III
(II: 11.5%, I: 6.1%, III: 3.7%)

[1] O=C(Nc1cccc(C(=O)Nc2cccc(C3=NCCN3)c2)c1)Nc1cccc(C(=O)Nc2cccc(C3=NCCN3)c2)c1 [compound 8]
[2] CCc1nc2ccc(NCCN(C)C)c3c(=O)c4ccccc4n1c23 [compound 4]
[ask] Could you check which of 1 and 2 has a smaller value for inhibition at 100 µM? State the label of the item chosen.
[reply] 2
